Taken from ChEMBL document CHEMBL1201862.

System: MOLT-4
Test: NCI tumour cell line growth inhibition, 48 h
Activity calls are given as the source filed them. No stated cut-off is given here; in the data, active = GI50 up to about 1.1 µM and inactive = higher.
Your response should consist of one outcome taken from active, inactive

Example results:
CCNC(=O)Nc1ccccn1    inactive
COc1cc(/C=C2\C(=O)N(C(=O)c3ccc(NC(C)=O)cc3)N=C2C)ccc1O    inactive
C=CCOc1cccc(C2(O)c3ccccc3C3=NCCCN32)c1 (stereo not given)    inactive
COc1cc(/C=C/C(=O)c2cccc3ccccc23)cc(OC)c1OC    inactive
O=C1C(Cl)=CC2(C=C1Cl)CCNC1=C2C(=O)c2nc[nH]c2C1=O    inactive
C=C[C@@]1(C)CC2CC[C@]3(C)C(C)=CC(=O)CC3[C@]2(C)CC1O (stereo not given in full)    inactive
OC[C@]1(n2nc3ccccc3n2)OC[C@@H]1c1ccccc1    inactive
O=[N+]([O-])c1cccc(C2N3CCCCC3[C@@H]3c4[nH]c5ccccc5c4CCN23)c1 (stereo not given in full)    inactive

For CSc1ccc(C2OC(=O)c3ccccc32)c2ccccc12 (stereo not given) , what call appears in the results of this test?
inactive

For Cn1cc(C2NC(=O)c3ccccc3N2)c2ccccc21 (stereo not given) , what call appears in the results of this test?
active

For "CC1(C)N=C(N)N=C(N)N1c1cccc(OCc2cccc(N)c2)c1" , what call appears in the results of this test?
inactive

For C=CCNC1=NC(=O)C(CC(=O)Nc2ccc([N+](=O)[O-])cc2[N+](=O)[O-])S1 (stereo not given) , what call appears in the results of this test?
inactive

For "CCCCCCCc1c(Cl)nc(Cl)nc1Cl" , what call appears in the results of this test?
inactive

For "C/C(=C/CNc1ncnc2c1ncn2CCC#N)CO" , what call appears in the results of this test?
inactive

For CC(=O)OCC1OC(N2C(=O)CC(N)=Nc3ccccc32)C(OC(C)=O)C(OC(C)=O)C1OC(C)=O (stereo not given) , what call appears in the results of this test?
inactive
